SYSTEM NAME: Telomerase reverse transcriptase (Homo sapiens)
Sequence (O14746 whole entry): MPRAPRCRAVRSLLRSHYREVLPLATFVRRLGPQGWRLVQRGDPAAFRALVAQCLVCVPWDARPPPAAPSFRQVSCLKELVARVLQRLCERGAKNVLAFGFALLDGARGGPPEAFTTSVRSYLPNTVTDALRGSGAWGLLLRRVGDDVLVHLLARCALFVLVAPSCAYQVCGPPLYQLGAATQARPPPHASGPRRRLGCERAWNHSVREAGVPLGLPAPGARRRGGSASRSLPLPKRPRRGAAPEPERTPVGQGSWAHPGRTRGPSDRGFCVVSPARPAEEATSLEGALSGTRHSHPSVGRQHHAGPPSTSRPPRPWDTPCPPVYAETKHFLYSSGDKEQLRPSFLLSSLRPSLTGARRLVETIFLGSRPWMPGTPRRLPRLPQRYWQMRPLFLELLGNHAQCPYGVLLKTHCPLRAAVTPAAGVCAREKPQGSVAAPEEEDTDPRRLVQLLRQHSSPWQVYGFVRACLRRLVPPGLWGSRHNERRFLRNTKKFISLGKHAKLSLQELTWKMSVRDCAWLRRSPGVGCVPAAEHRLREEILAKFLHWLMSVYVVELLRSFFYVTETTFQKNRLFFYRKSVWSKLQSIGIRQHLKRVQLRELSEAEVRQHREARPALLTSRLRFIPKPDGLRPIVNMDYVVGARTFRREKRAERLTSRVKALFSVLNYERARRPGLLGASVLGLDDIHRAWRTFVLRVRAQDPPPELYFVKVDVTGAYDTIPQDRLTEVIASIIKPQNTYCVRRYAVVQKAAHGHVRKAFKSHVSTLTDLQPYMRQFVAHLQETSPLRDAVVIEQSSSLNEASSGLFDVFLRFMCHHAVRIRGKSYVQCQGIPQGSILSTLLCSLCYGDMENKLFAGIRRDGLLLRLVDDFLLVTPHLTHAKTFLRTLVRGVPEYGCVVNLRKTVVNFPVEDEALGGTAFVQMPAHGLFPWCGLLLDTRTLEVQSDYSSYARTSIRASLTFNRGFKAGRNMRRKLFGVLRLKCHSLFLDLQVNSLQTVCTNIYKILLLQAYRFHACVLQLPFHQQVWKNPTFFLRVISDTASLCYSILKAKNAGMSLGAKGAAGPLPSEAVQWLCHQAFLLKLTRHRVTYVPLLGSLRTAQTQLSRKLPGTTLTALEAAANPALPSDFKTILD
PROTOCOL DETAILS: Inhibition of telomerase in human MGC-803 cells after 24 hrs by TRAP-PCR-ELISA assay
pIC50: −log10 of the molar value.
PROPERTY: pIC50

Example molecules with recorded pIC50:
CC(=O)Oc1ccccc1C1CC(C)=NN1C(=O)CN1CCC(O)CC1 (stereo unspecified): 5.24
COc1ccc(NCC(=O)N2N=C(C)CC2c2ccccc2O)cc1 (stereo unspecified): 4.65
C=CCN(CC=C)CC(=O)N1N=C(C)CC1c1cc(Br)ccc1O (stereo unspecified): 4.93
CC(=O)Oc1ccccc1C1CC(C)=NN1C(=O)CCl (stereo unspecified): 5.90
COc1ccccc1C1CC(C)=NN1C(=O)CN(C(C)C)C(C)C (stereo unspecified): 4.85
CC1=NN(C(=O)CN2CCN(C(=O)OC(C)(C)C)CC2)C(c2ccccc2O)C1 (stereo unspecified): 5.17

a: CC(C)CNCC(=O)N1N=C(c2cc3ccccc3oc2=O)CC1c1ccccc1 (stereo unspecified)
b: O=C(CN1CCC(Cl)CC1)N1N=C(c2cc3ccccc3oc2=O)CC1c1ccccc1 (stereo unspecified)
c: CCC(=O)N1N=C(C)CC1c1cc(Br)cc(Br)c1O (stereo unspecified)
d: CCCN(CCC)CC(=O)N1N=C(C)CC1c1cc(Br)ccc1O (stereo unspecified)
Q) Order the items by recorded pIC50; the first position goes to the largest value. Write the labels in rank order as requested.
A) a, d, c, b

1: CC(=O)Oc1ccccc1C1CC(C)=NN1C(=O)CN1CCCCC1 (stereo unspecified)
2: CC(C)NCC(=O)N1N=C(c2cc3ccccc3oc2=O)CC1c1ccccc1 (stereo unspecified)
Q) Between the two listed entries 1 and 2 , which has its pIC50 at the higher number? // caller expects the label of the chosen entry
A) 1
(1: 5.67, 2: 5.45)

A: CC(=O)Oc1ccccc1C1CC(C)=NN1C(=O)CN1CCCC1 (stereo unspecified)
B: CC1=NN(C(=O)CCl)C(c2cc(Br)ccc2O)C1 (stereo unspecified)
C: O=C(CN1CCC(c2ccccc2)CC1)N1N=C(c2cc3ccccc3oc2=O)CC1c1ccccc1 (stereo unspecified)
D: O=C(c1ccccc1Cl)N1N=C(c2cc3ccccc3oc2=O)CC1c1ccccc1 (stereo unspecified)
Q) // sort entries: pIC50, high to low # the answer lists labels in the order requested
A) B, A, D, C
